# target: minipig insulin receptor (INSR) on CHOK1 cells (minipig, UniProt F1SCL0 28-758; F1SCL0 763-1382)
# method: cell-based or functional assay
assay readout: EC50 (nM), pAKT signaling assay
Just the number please, in nM, no unit attached.

Q) Name the reported EC50 (nM), pAKT signaling assay value associated with the binder XPA.15.247 Fab (Fab, V domains shown, Monomeric Fab; also called Fab247; XPA.15.247 parent Fab) VH: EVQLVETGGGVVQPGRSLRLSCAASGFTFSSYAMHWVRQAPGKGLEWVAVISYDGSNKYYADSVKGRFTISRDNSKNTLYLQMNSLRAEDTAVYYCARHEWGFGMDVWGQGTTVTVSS VL: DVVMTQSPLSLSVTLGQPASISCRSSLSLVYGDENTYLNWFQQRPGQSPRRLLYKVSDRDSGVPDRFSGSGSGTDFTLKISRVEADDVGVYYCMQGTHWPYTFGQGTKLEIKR
A) 20.7

Q) Then this binder: XPA.15.247 parent antibody (IgG) (antibody, V domains shown, Tested as IgG; also called XPA.15.247 antibody) VH: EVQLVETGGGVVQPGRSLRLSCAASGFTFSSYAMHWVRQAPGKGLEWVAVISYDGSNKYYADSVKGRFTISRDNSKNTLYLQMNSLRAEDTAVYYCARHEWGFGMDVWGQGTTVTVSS VL: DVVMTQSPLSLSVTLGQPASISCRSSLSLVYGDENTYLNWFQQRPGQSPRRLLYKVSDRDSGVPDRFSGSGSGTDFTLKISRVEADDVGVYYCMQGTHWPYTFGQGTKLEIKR
A) 20.7

Further cases:
Q) Name the reported EC50 (nM), pAKT signaling assay value associated with the binder XPA.15.247.2.018 Fab (Fab, V domains shown, Monomeric Fab; also called XPA.247.2.018) VH: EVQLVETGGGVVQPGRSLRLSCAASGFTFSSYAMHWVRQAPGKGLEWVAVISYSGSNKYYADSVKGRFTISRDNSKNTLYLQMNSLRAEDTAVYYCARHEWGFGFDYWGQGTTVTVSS VL: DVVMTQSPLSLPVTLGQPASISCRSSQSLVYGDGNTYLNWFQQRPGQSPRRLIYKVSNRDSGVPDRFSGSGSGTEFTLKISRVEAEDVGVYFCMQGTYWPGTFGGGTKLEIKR
A) 2.5

Q) Then this binder: XPA.15.247.2.014 IgG (antibody, V domains shown, Tested as IgG; also called XPA.15.247.014) VH: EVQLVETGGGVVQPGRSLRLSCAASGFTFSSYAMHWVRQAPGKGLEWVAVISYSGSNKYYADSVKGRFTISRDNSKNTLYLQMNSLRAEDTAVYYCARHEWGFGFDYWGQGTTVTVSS VL: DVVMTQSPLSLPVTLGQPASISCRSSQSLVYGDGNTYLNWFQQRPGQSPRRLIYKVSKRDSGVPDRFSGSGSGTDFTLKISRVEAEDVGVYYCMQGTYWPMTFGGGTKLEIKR
A) 2.3
